Reported TNF-α values for a set of compounds
Tested on: testis of I/R rats
Assay: TNFα in testis of I/R rats (ELISA)
Type: in vivo
Conditions: i.p. 1 h before ischemia, dose equivalent to 30 mg NAC, mean ± S.E.M, n=6
Only the number, expressed in pg/mL, is required.

- compound: "CC(=O)N[C@@H](CS)C(=O)O [NAC, N-acetylcysteine, reference compound]"
  readout_type: "TNF-α"
  readout_value: 93.39

query: May I ask what TNF-α has been recorded for Cc1ccc2[nH]c(=O)cc(OCc3cn(-c4cc(=O)[nH]c5ccc(C)cc45)nn3)c2c1 ?
result: 237.90

query: Try COc1ccc2[nH]c(=O)cc(OCc3cn(-c4cc(=O)[nH]c5ccccc45)nn3)c2c1 next.
result: 192.00

query: Try Cc1ccc2[nH]c(=O)cc(-n3cc(COc4cc(=O)[nH]c5ccccc45)nn3)c2c1 next.
result: 107.90

query: Try O=c1cc(OCc2cn(-c3cc(=O)[nH]c4ccccc34)nn2)c2ccccc2[nH]1 next.
result: 106.40

query: Try Cn1c(=O)cc(-n2cc(COc3cc(=O)[nH]c4ccccc34)nn2)c2ccccc21 next.
result: 234.50

query: Try COc1ccc2[nH]c(=O)cc(-n3cc(COc4cc(=O)[nH]c5ccccc45)nn3)c2c1 next.
result: 106.70

query: Try Cc1ccc2[nH]c(=O)cc(OCc3cn(-c4cc(=O)[nH]c5ccccc45)nn3)c2c1 next.
result: 188.90
